Please go through the items and note down their inhibition.
# System under test: Bifunctional protein GlmU (Mycobacterium tuberculosis (strain ATCC 25618 / H37Rv)) (UniProt P9WMN3)
# Sequence (P9WMN3 whole entry, looked up): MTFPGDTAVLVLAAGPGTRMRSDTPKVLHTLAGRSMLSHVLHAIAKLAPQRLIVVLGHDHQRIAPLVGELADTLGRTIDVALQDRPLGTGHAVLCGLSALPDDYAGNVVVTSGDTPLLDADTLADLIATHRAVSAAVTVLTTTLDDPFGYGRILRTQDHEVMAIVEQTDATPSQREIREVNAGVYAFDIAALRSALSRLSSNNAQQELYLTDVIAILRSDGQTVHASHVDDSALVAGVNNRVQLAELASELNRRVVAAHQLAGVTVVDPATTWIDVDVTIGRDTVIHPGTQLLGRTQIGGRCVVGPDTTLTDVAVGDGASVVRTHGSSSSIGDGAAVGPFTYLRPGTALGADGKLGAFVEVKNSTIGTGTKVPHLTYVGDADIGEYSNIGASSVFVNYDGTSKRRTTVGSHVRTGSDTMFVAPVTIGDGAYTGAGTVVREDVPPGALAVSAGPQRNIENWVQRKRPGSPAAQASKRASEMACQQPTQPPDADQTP
# Method summary: inhibition of mycobacterial GlmU enzyme – biochemical, glucosamine-1-phosphate acetyltransferase (AID 1376);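 further: 0% = complete reaction with vehicle and 100% = reaction without substrate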
# Experimental conditions: M. tuberculosis GlmU acetyltransferase enzyme assay; active compounds read high;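 tested at 30 µM in the primary screen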
Screen size: about 220,000 compounds; about 530 (0.24%) were called active. The full list was thinned out, with actives kept by preference. Potency and affinity values are given separately.

Exam item: Recorded inhibition of CC(=O)c1cc(F)c(N2CCN(C(=O)COc3ccccc3F)CC2)cc1C , please.
Marked response: 1.65% (inactive)

Exam item: Report inhibition for Cc1ccc(N2C(=O)CS/C2=C(\C(Cl)=C(Cl)Cl)[N+](=O)[O-])cc1 please.
Marked response: 12.9% (active)

Exam item: Please give the measured inhibition for this compound: CNC(=S)N1CCN(C(=O)c2ccco2)CC1
Marked response: 2.06% (inactive)

Exam item: Fill in: inhibition of CCOc1ccc(N2C(=O)CS/C2=C(\C(Cl)=C(Cl)Cl)[N+](=O)[O-])cc1 is ___
Marked response: 7.22% (inactive)

====

# System under test: Bifunctional protein GlmU (Mycobacterium tuberculosis (strain ATCC 25618 / H37Rv))
# Method summary: inhibition of mycobacterial GlmU enzyme – biochemical, glucosamine-1-phosphate acetyltransferase (AID 1376);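 further: 0% = complete reaction with vehicle and 100% = reaction without substrate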
# Experimental conditions: M. tuberculosis GlmU acetyltransferase enzyme assay; active compounds read high;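 tested at 30 µM in the primary screen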
Among all 220,000 compounds or so, about 530 (0.24%) were called active. Only a selection was taken, and actives are over-represented in it overall. Results with a measured potency or affinity are listed apart.
Experimental endpoint: inhibition (%)
Give your result in % as a bare value.

Exam item: Given the entry CCCN1C(=O)c2cc(C(=O)Nc3ccc(OC)cc3OC)ccc2C1Nc1ccc(OC)cc1OC (stereo not drawn) , what inhibition was observed with Bifunctional protein GlmU (Mycobacterium tuberculosis (strain ATCC 25618 / H37Rv))?
Marked response: -6.94

Exam item: Identify the measured inhibition of COC(=O)CCSC(=S)N1CCOCC1 for Bifunctional protein GlmU (Mycobacterium tuberculosis (strain ATCC 25618 / H37Rv)).
Marked response: -0.58

Exam item: Bifunctional protein GlmU (Mycobacterium tuberculosis (strain ATCC 25618 / H37Rv)) / inhibition / O=[N+]([O-])c1ccc(Oc2ccc(S(=O)(=O)N3CCCCC3)cc2)cc1 : value?
Marked response: -0.28

These entries and their values trace back to PubChem BioAssay AID1376.
